Let's look at some molecules and their measured % responders of in-vitro T cell proliferation test, Allergic.
System: T cell lines obtained from HDM allergic individuals and non-allergics
Test: In vitro T cell proliferation test in T cell lines (Example 3)
Format: cell-based, human
Conditions: T cell lines from HDM allergic individuals (n=30); 0.5 or 2 ug/ml; 72 h
Supply the numeric figure in %, leaving out any unit text.

# annotated cases, reported % responders of in-vitro T cell proliferation test, Allergic shown
{"MOLECULE": "A024: house dust mite protein; SEQ ID NO: 11 (Der f), 12 (Der p), 318 (Blo t) (protein) MSISAHGGGLVNGIAGMENKFTVFTSGKPVSGLTVAFEGPTKPEINFNSTKDGSVDVGYIPKAGGQYKIHIKYEGKEIVGSPFKCNISGDESTHRKLTEKVKVGGPNISTGKVNQDNQLTIDCKEAGITGGISFAMEGPAKVEVSFRNNNDGTITVIYKPPTPGDYKLHLKFNDIHLPGSPYPIVVSA", "OBSERVED_MEASUREMENT": 21}
{"MOLECULE": "A003: house dust mite protein; SEQ ID NO: 2 (Der f), 3 (Der p), 305 (Blo t) (protein) MAIDGKYQMESSEHFEEFVKEMGLDVDMTNVDLSKTSTMEICKDGDVYHIKSETAGIAHEIKFKVGEEFEDDMNGHKFKNVVTMECDNKMVQKKTSADGGKVVNVVREFTDAGCTVKSTYNTVTWTRVYKRM", "OBSERVED_MEASUREMENT": 3}

Continue with the next molecule.
Please list % responders of in-vitro T cell proliferation test, Allergic recorded for the molecule A018: house dust mite protein; SEQ ID NO: 5 (Der f), 6 (Der p), 314 (Blo t) (protein) MVKAVVVLKGDPNVSGTIFFEQQDNGPVKVTGSVQGLKPGLHGFHVHEFGDNTNGCTSAGAHYNPLNKTHGAPNDEERHVGDLGNIEANDKGVANVVIEDSLISLTGEKSIVGRSLVVHADPDDLGRGGHELSKTTGNAGGRLVCGVIGVTK
0
